Assign self-cleavage kobs at 640 uM GlcN6P to each entry below.
B1: glmS ribozyme (parent)
chain: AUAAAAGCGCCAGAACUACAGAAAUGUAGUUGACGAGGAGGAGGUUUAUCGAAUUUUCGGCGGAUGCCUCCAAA

Variants of: B1
assay notes: self-cleavage kobs at 640 uM GlcN6P; higher = faster cleavage; RNA array
condition summary: with glucosamine-6-phosphate
Fewer inactive variants are shown than the library holds.
Give just the number in s⁻¹; leave the unit off.

QUERY: Could you tell me which self-cleavage kobs at 640 uM GlcN6P is on file for A39U U46G ?
RESULT: 0.000968

QUERY: Note, next up: A14G G29A G32U
RESULT: 0.000272

QUERY: Same lookup for A42U U47A , please.
RESULT: 4.11e-05

QUERY: What do you have for A15G U47G U55G C70A ?
RESULT: 0.000102

QUERY: Here is the next variant: C11U C50G
RESULT: 0.000371

QUERY: What about this variant? G29A C50G
RESULT: 3.64e-05

Cited source for all entries: the supplement of paper PMC7125110
